Tested on: Trypanosoma brucei
procedure_summary: DNDI: Inhibition of Human African Trypanosomiasis, SBRI 427, in vitro at 2 ug.mL-1
Type: functional
Hit rate of the full screen: of about 4,400 compounds, about 390 (8.9%) showed an effect of 50% or more. This is one part of a sample in which strong results are shown more often than they occur.
quantity_kind: % inhibition (%)

O/N=C(\NCCN1CCOCC1)c1ccc(Oc2ccc(Cl)cc2)nc1    -2
FC(F)(F)c1ccc(-c2nc(CN3CCN(C(c4ccccc4)c4ccccc4)CC3)co2)cc1    -3
Cc1nccn1/C(=N\O)c1ccnc(Oc2ccc(Cl)cc2)c1    5
Cc1ccc(/C(N)=N/O)c(Oc2ccc(F)c(Cl)c2)n1    20
CN(Cc1ccccc1)Cc1coc(-c2cccc3ccccc23)n1    -2
COc1cc(CNCc2coc(-c3ccccc3Br)n2)cc(OC)c1OC    -33

---

Tested on: Trypanosoma brucei
procedure_summary: DNDI: Inhibition of Human African Trypanosomiasis, SBRI 427, in vitro at 2 ug.mL-1
Assay type: functional
Among all 4,400 compounds or so, about 390 (8.9%) showed an effect of 50% or more. Only a selection was taken, and strong results are over-represented in it overall.
quantity_kind: % inhibition (%)

CC(NCc1coc(-c2ccc(Cl)cc2Cl)n1)C(C)(C)C (configuration not stated)    55
O/N=C(\NCC1CC1)c1cccnc1Oc1ccc2ccccc2c1    99
C=CCc1ccc(Oc2ncccc2/C(N)=N/O)c(OC)c1    18
O/N=C(\NCC1CCCCC1)c1cccnc1Oc1ccc(-n2cncn2)cc1    90
CCCN(CC1CC1)/C(=N\O)c1cccnc1Oc1ccccc1SC    30
NCCc1cn(Cc2coc(-c3cccc4ccccc34)n2)cn1    73
COCC(C)N/C(=N\O)c1ccnc(Oc2ccc(F)c(Cl)c2)c1 (configuration not stated)    99
CCOc1ccccc1-c1nc(CNCc2ccc(C(F)(F)F)cc2)co1    6
Cc1ccc2cccc(Oc3cc(/C(=N/O)NCc4cccs4)ccn3)c2n1    6
CC(C)(C)COc1ncccc1/C(=N/O)NCC1CCCCC1    -1
O/N=C(/c1ccc(Oc2ccc(Cl)cc2)nc1)n1ccnc1    0
Cc1cn(Cc2coc(-c3ccc(Cl)cc3Cl)n2)cn1    2
NCCc1cn(Cc2coc(-c3ccc(Cl)cc3Cl)n2)cn1    75
CCOc1cccc(-c2nc(CN(C)CC#N)co2)c1    15
CC(C)(C)COc1ncccc1/C(=N/O)NCc1ccccc1    17
Clc1ccc(-c2nc(Cn3cnc(-c4ccccc4)c3)co2)c(Cl)c1    7
CCN(Cc1coc(-c2ccccc2Cl)n1)c1cccc2ccccc12    -6
CC(C)c1ccc(N/C(=N\O)c2ccnc(Oc3ccc(F)c(Cl)c3)c2)cc1    0
COc1cccc(-c2nc(CN(C)CCc3ccccc3)co2)c1    1
O/N=C(\NCC1CCCCC1)c1cccnc1Oc1ccc(Cl)cc1    98
CCC(NCc1coc(-c2ccc(OC(F)(F)F)cc2)n1)c1ccccc1 (configuration not stated)    -21
COc1cc(CNCc2coc(-c3ccc(C(F)(F)F)cc3)n2)cc(OC)c1    -1
CCOc1ccc(-c2nc(CN(C)c3ccccc3)co2)cc1    -8
Cc1ccc2cccc(Oc3cc(/C(N)=N/O)ccn3)c2n1    7
Cc1ccc(Oc2ncccc2/C(=N/O)N2CC=CCC2)c2c1CCC2    14
O/N=C(\NCc1ccccc1)c1cccnc1Oc1ccc(-n2cncn2)cc1    21
NCCc1cn(Cc2coc(-c3ccccc3F)n2)cn1    40
CC(C)c1ccc(Oc2ncccc2/C(=N/O)N2CCC=N2)cc1    -4
CCOc1ccc(-c2nc(CNCc3ccc(OC)cc3OC)co2)cc1    -17
Cc1ccc([C@@H](C)NCc2coc(-c3ccc(Cl)cc3Cl)n2)cc1    14
Cc1ccc(-c2nc(CN(C)C(C)(C)C)co2)cc1    22
CCCC(CCC)NCc1coc(-c2ccccc2OCC)n1    98
CCN(Cc1coc(-c2ccc(C(F)(F)F)cc2)n1)c1ccccc1    4
NCCc1cn(Cc2coc(-c3ccccc3Br)n2)cn1    -5
COc1ccc(Oc2ncccc2/C(=N/O)NCCN2CCOCC2)cc1    -10
CSc1ccccc1Oc1ncccc1/C(=N/O)NCCN1CCCC1    22
COc1ccc(Oc2ncccc2/C(=N/O)N2CCCCC2)cc1    7
CCN(/C(=N\O)c1ccnc(Oc2ccc(F)c(F)c2)c1)C(C)C    43
O/N=C(\NCCN1CCOCC1)c1cccnc1Oc1ccc2ccccc2c1    -10
COCCN(/C(=N\O)c1ccc(Oc2ccc3oc4ccccc4c3c2)nc1)C(C)C    7
CSc1ccccc1Oc1ncccc1/C(=N/O)NCC1CC1    99
COc1cc(CNCc2coc(-c3cccs3)n2)cc(OC)c1    -7
Cc1ccc(Oc2nc(C)ccc2/C(=N/O)Nc2ccccc2)c(C)c1    -4
O/N=C(\NCC1CCCO1)c1cccnc1Oc1ccc(-n2cncn2)cc1 (configuration not stated)    24
COc1ccc(Oc2cc(/C(=N/O)NCc3ccccc3C)ccn2)cc1    21
Brc1ccc(-c2nc(CNCCCN3CCOCC3)co2)cc1    -12
COc1ccc(NCc2coc(-c3cccc(F)c3)n2)cc1    14

---

Tested on: Trypanosoma brucei
procedure_summary: DNDI: Inhibition of Human African Trypanosomiasis, SBRI 427, in vitro at 2 ug.mL-1
Type: functional
The whole screen tested about 4,400 compounds, of which about 390 (8.9%) showed an effect of 50% or more. The sample as a whole holds a higher share of strong results than the screen did.
Hi, to clarify the labels: y covers % inhibition from 6% upward, n covers anything below 6%.

Cc1cccc(Oc2ccc(/C(=N/O)NCc3cccnc3)cn2)c1    y
COc1ccc(CNCc2coc(-c3ccccc3C)n2)c(OC)c1    n
Cc1ccc(/C(=N/O)N2CCN(C)CC2)c(Oc2cc(Cl)ccc2Cl)n1    n
Fc1ccc(-c2nc(CNC3CCCCC3)co2)cc1    y
Cc1ccc(-c2nc(CNC3CCCCCCC3)co2)cc1    y
COc1cc(CN(C)Cc2coc(-c3ccc(Cl)cc3Cl)n2)cc(OC)c1OC    n
Cc1ccc(/C(=N/O)N2CCCCC2)c(Oc2cc(Cl)ccc2Cl)n1    y
Oc1ccc(-c2nc(CNC3CCCCCC3)co2)cc1    y
COc1cccc(OC)c1CNCc1coc(-c2ccc(C(C)(C)C)cc2)n1    y

---

Test system: Trypanosoma brucei
procedure_summary: DNDI: Inhibition of Human African Trypanosomiasis, SBRI 427, in vitro at 2 ug.mL-1
Assay type: functional
Hit rate of the full screen: of about 4,400 compounds, about 390 (8.9%) showed an effect of 50% or more. The entries come from a sample that favours strong results as a whole.
quantity_kind: % inhibition (%)

CC(C)c1cccc(Oc2cc(/C(=N/O)NC3CCc4ccccc43)ccn2)c1 (stereo unspecified)    4
CC(C)(C)COc1ncccc1/C(=N/O)NCC1CCCO1 (stereo unspecified)    4
Cc1ccc(/C(=N/O)NC2CC(C)CC(C)(C)C2)c(OCC(C)C)n1 (stereo unspecified)    97
COc1ccc(OC)c(NCc2coc(-c3ccccc3C)n2)c1    8
COc1ccc(-c2nc(CN3CCN(c4ccc(C(C)=O)cc4)CC3)co2)cc1    4
CN(Cc1ccco1)/C(=N\O)c1ccc(Oc2c(F)c(F)cc(F)c2F)nc1    -10
Cc1ccc(Oc2nc(C)ccc2/C(=N/O)N2CCC3CCCCC3C2)c(C)c1 (stereo unspecified)    10
CCc1ccc(Oc2ccc(/C(=N/O)NCc3ccc(OC)cc3)cn2)cc1    22
CCOC(=O)c1cn(Cc2coc(-c3ccc(OCC)cc3)n2)nc1C(F)(F)F    -15
Cc1ccc(/C(=N/O)NC2CCc3ccccc32)c(OCc2ccccn2)n1 (stereo unspecified)    5
COCCN(Cc1coc(-c2ccc(OC)cc2)n1)C(C)C    -10
COc1ccc(N(C)Cc2coc(-c3ccc(C(F)(F)F)cc3)n2)cc1    2
CC(C)COc1ncccc1/C(=N/O)NC1CC(C)CC(C)(C)C1 (stereo unspecified)    -8
CSc1ccc(Oc2nc(C)ccc2/C(=N/O)n2ccnc2)cc1    -8
CC(C)c1ccccc1Oc1ncccc1/C(N)=N/O    7
Cc1ccc(/C(=N/O)NCC2CCCCC2)c(OCc2ccccn2)n1    43
CCOc1ccc(-c2nc(CN(C)CC#N)co2)cc1    4
COc1ccc(Oc2ncccc2/C(=N/O)NCC(C)(C)C)cc1    98
CSc1ccc(Oc2cc(/C(=N/O)NC3CCC(C)CC3)ccn2)cc1 (stereo unspecified)    9
C#CCNCc1coc(-c2ccc(OC)cc2)n1    -25
Cc1ccc(/C(=N/O)NC2CCC(C)CC2)c(OCc2ccccn2)n1 (stereo unspecified)    100
Cc1cccc(Oc2ncccc2/C(=N/O)N2CC(C)CC(C)C2)c1C (stereo unspecified)    1
COc1cc(C)ccc1Oc1nc(C)ccc1/C(=N/O)n1nc(C)cc1C    -5
CC(C)c1ccc(N/C(=N\O)c2ccc(Oc3ccc4oc5ccccc5c4c3)nc2)cc1    25
CSc1ccc(Oc2nc(C)ccc2/C(=N/O)NC2CC(C)CC(C)(C)C2)cc1 (stereo unspecified)    10
CCc1ccc(Oc2ccc(/C(=N/O)N3CCCCC3)cn2)cc1    68
Cc1ccc(/C(=N/O)NC(C)C)c(OCc2ccccn2)n1    11
Cc1ccc(Oc2ncccc2/C(N)=N/O)cc1    21
O/N=C(\NCc1cccnc1)c1cccnc1Oc1ccc(Cl)cc1    4
Fc1ccc(-c2nc(CN3CCN(c4cccc(Cl)c4)CC3)co2)cc1    -16
COc1cc(C)ccc1Oc1nc(C)ccc1/C(=N/O)Nc1ccccc1    -6
CC(C)(C)CN/C(=N\O)c1cccnc1Oc1ccc(Cl)cc1    99
Cc1ccccc1-c1nc(CNCCN2CCOCC2)co1    6
CCOc1ccccc1Oc1ncccc1/C(=N\O)NCc1ccncc1    0
CC(C)c1ccc(Oc2ncccc2/C(N)=N/O)cc1    16
C#CCN(C)Cc1coc(-c2ccc(Br)cc2)n1    4
C=CCN1CCN(/C(=N\O)c2ccc(C)nc2Oc2ccc(C)cc2)CC1    30
CCN(Cc1coc(-c2cccc3ccccc23)n1)c1ccc2c(c1)OCO2    29
CCOc1ccccc1-c1nc(CN2CCN(c3ccc(C)cc3C)CC2)co1    7
CCOc1ccc(-c2nc(CNCCCN(C)c3ccccc3)co2)cc1    42
FC(F)(F)Oc1ccc(-c2nc(CNCc3ccccc3OC(F)(F)F)co2)cc1    -17
C=CCN(Cc1coc(-c2cccc(OC)c2)n1)c1ccccc1    35
Cc1ccc(C(C)C)c(Oc2cc(/C(=N/O)NCC3CCCCC3)ccn2)c1    27
Cc1ccc(/C(=N/O)NCCN2CCCC2)c(OCc2cccc(F)c2)n1    -12
COc1cccc(-c2nc(CN3CCN(c4ccccc4)CC3)co2)c1    15
N/C(=N\O)c1cccnc1Oc1ccc(F)c(Cl)c1    10
